# Assayed Target: human neutrophil elastase (Homo sapiens, UniProt P08246)
# Sequence (P08246 30-267): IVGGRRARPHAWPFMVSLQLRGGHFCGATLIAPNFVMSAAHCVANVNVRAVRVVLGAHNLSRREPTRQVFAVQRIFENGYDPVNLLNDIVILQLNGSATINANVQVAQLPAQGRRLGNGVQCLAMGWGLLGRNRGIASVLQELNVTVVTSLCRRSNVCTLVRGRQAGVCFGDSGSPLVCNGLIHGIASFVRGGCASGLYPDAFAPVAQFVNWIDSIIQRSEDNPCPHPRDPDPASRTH
# Assay Procedure: Inhibitory activity on human neutrophil elastase (HNE) in vitro
# Experimental Parameters: human neutrophil elastase 0.2 U/ml, substrate MeO-Suc-Ala-Ala-Pro-Val-pNA 0.5 mM, 37° C., pH 7.5
pIC50: −log10 of the molar value.
Quantity: pIC50

Previously resolved entries follow.
• Cc1c(C(=O)N[C@H](C(=O)N2CCC[C@H]2C(=O)N[C@H](C(=O)C(F)(F)F)C(C)C)C(C)C)cnn1-c1ccc(Cl)cc1 [Example 38] = 8.08
• CCc1noc(C)c1C(=O)N[C@H](C(=O)N1CCC[C@H]1C(=O)N[C@H](C(=O)C(F)(F)F)C(C)C)C(C)C [Example 4] = 7.77

a = CC(C)Oc1cc(C(=O)N[C@H](C(=O)N2CCC[C@H]2C(=O)N[C@H](C(=O)C(F)(F)F)C(C)C)C(C)C)on1 [Example 12]
b = CC(C)[C@H](NC(=O)c1noc2ccccc12)C(=O)N1CCC[C@H]1C(=O)N[C@H](C(=O)C(F)(F)F)C(C)C [Example 2]
### Prompt Pick the one with the larger pIC50: a vs b Mark your answer with the label of the selected entry.
### Response b

---

# System: pulmonary hemorrhage induced by human neutrophil elastase (HNE)
# Assay Procedure: Inhibitory activity on pulmonary hemorrhage induced by human neutrophil elastase (HNE)
# Assay type: in vivo
# Experimental Parameters: Homo sapiens, Neutrophil, po; hamster, orally administered 30 minutes prior to intratracheal HNE; hemoglobin in bronchoalveolar lavage fluid after 1 hour
Quantity: ED50 (mg/kg)
Could you give me the number in mg/kg? Just the number is fine.

* Cc1nnsc1C(=O)N[C@H](C(=O)N1CCC[C@H]1C(=O)N[C@H](C(=O)C(F)(F)F)C(C)C)C(C)C | 1.6
* Cc1cc(C(=O)N[C@H](C(=O)N2CCC[C@H]2C(=O)N[C@H](C(=O)C(F)(F)F)C(C)C)C(C)C)no1 | 0.62
* CCc1noc(C)c1C(=O)N[C@H](C(=O)N1CCC[C@H]1C(=O)N[C@H](C(=O)C(F)(F)F)C(C)C)C(C)C | 2.5

### Prompt Tell me reported ED50 for `COc1cc(C(=O)N[C@H](C(=O)N2CCC[C@H]2C(=O)N[C@H](C(=O)C(F)(F)F)C(C)C)C(C)C)on1` , tested with pulmonary hemorrhage induced by human neutrophil elastase (HNE).
### Response 1.5
